# Measurement Notes: 1st phase clinical test: pharmacokinetics of petasin in serum after single oral administration of tablets containing butterbur extract (open crossover; enzyme immunoassay)
# Format: in vivo, human (clinically healthy men)
# Conditions: male, human, serum, oral, 4 tablets, after administering 4 tablets; 4 h p.a.; read-out: Petasin serum concentration Mean
Measured Attribute: concentration at 4 h (ng/mL)
Kindly answer with a numeric value in ng/mL, unit omitted.

## Input Need concentration at 4 h, item C=C(C)C1CC2(C)C(=CC1=O)CCC(OC(=O)/C(C)=C\C)C2C (stereo not shown)
## Output 9.5

----------
# Measurement Notes: 1st phase clinical test: pharmacokinetics of petasin in serum after single oral administration of tablets containing butterbur extract (open crossover; enzyme immunoassay)
# Format: in vivo, human (clinically healthy men)
# Conditions: male, human, serum, oral, 2 tablets, after administering 2 tablets; 0.5 h p.a.; read-out: Petasin serum concentration Min.
Measured Attribute: concentration at 0.5 h (ng/mL)
Give the value in ng/mL but do not write ng/mL after it.

## Input Form field: reported concentration at 0.5 h of C=C(C)C1CC2(C)C(=CC1=O)CCC(OC(=O)/C(C)=C\C)C2C (stereo not shown)
## Output 1.5

----------
# Measurement Notes: 1st phase clinical test: pharmacokinetics of petasin in serum after single oral administration of tablets containing butterbur extract (open crossover; enzyme immunoassay)
# Assay type: in vivo, human (clinically healthy men)
# Conditions: male, human, serum; 4 tablets, single oral; mean ± SD
Measured Attribute: Tmax (h)
Your answer is read as h, so omit the unit and give the number.

## Input Given the compound C=C(C)C1CC2(C)C(=CC1=O)CCC(OC(=O)/C(C)=C\C)C2C (stereo not shown) [petasin] , what is its reported Tmax?
## Output 1.61

----------
# Measurement Notes: 1st phase clinical test: pharmacokinetics of petasin in serum after single oral administration of tablets containing butterbur extract (open crossover; enzyme immunoassay)
# Assay type: in vivo, human (clinically healthy men)
# Conditions: male, human, serum; 2 tablets, single oral; mean ± SD
Measured Attribute: Cmax (ng/mL)
State just the number; it will be interpreted in ng/mL.

## Input Requested read-out: Cmax. Entry: C=C(C)C1CC2(C)C(=CC1=O)CCC(OC(=O)/C(C)=C\C)C2C (stereo not shown) [petasin]
## Output 25.5

----------
# Measurement Notes: 1st phase clinical test: pharmacokinetics of petasin in serum after single oral administration of tablets containing butterbur extract (open crossover; enzyme immunoassay)
# Type: in vivo, human (clinically healthy men)
# Conditions: male, human, serum, oral, 4 tablets, after administering 4 tablets; 5 h p.a.; read-out: Petasin serum concentration Min.
Measured Attribute: concentration at 5 h (ng/mL)
A number alone suffices; assume ng/mL.

## Input Could you tell me which concentration at 5 h is on file for C=C(C)C1CC2(C)C(=CC1=O)CCC(OC(=O)/C(C)=C\C)C2C (stereo not shown) [petasin] ?
## Output 3.2

----------
# Measurement Notes: 1st phase clinical test: pharmacokinetics of petasin in serum after single oral administration of tablets containing butterbur extract (open crossover; enzyme immunoassay)
# Assay type: in vivo, human (clinically healthy men)
# Conditions: male, human, serum, oral, 2 tablets, after administering 2 tablets; 5 h p.a.; read-out: Petasin serum concentration Mean
# Procedure: Petasin ovalbumin is adsorptively bound to polystyrene microtitration plates in a concentration of […] in 0.1 M carbonate buffer, pH=9.5, (100 μl/well) for 16 hours at 4° C. and thereupon sucked off. After washing it two times with 300 μl/well washing buffer (PBS, 0.1% Tween 20) it is blocked for 2 hours at room temperature with 150 μl/well blocking solution (0.6% gelatine, 0.02% […] in PBS) and subsequently washed three times with washing buffer. […]
Measured Attribute: concentration at 5 h
Record the result as number plus unit.

## Input // returns reported concentration at 5 h for input C=C(C)C1CC2(C)C(=CC1=O)CCC(OC(=O)/C(C)=C\C)C2C (stereo not shown) [petasin]
## Output 4.1 ng/mL

----------
# Measurement Notes: 1st phase clinical test: pharmacokinetics of petasin in serum after single oral administration of tablets containing butterbur extract (open crossover; enzyme immunoassay)
# Format: in vivo, human (clinically healthy men)
# Conditions: male, human, serum, oral, 4 tablets, after administering 4 tablets; 2.5 h p.a.; read-out: Petasin serum concentration Mean
Measured Attribute: concentration at 2.5 h (ng/mL)
Report the figure in ng/mL without appending any unit label.

## Input Recorded concentration at 2.5 h of C=C(C)C1CC2(C)C(=CC1=O)CCC(OC(=O)/C(C)=C\C)C2C (stereo not shown) [petasin] , please.
## Output 24.3

----------
# Measurement Notes: 1st phase clinical test: pharmacokinetics of petasin in serum after single oral administration of tablets containing butterbur extract (open crossover; enzyme immunoassay)
# Type: in vivo, human (clinically healthy men)
# Conditions: male, human, serum, oral, 4 tablets, after administering 4 tablets; 24 h p.a.; read-out: Petasin serum concentration Max.
Measured Attribute: concentration at 24 h (ng/mL)
// note: answer is a bare numeric in ng/mL

## Input concentration at 24 h lookup needed for C=C(C)C1CC2(C)C(=CC1=O)CCC(OC(=O)/C(C)=C\C)C2C (stereo not shown) , thanks.
## Output 2.3

----------
# Measurement Notes: 1st phase clinical test: pharmacokinetics of petasin in serum after single oral administration of tablets containing butterbur extract (open crossover; enzyme immunoassay)
# Format: in vivo, human (clinically healthy men)
# Conditions: male, human, serum, oral, 2 tablets, after administering 2 tablets; 3 h p.a.; read-out: Petasin serum concentration Max.
Measured Attribute: concentration at 3 h

## Input Which concentration at 3 h is reported for this molecule? C=C(C)C1CC2(C)C(=CC1=O)CCC(OC(=O)/C(C)=C\C)C2C (stereo not shown)
## Output 18.3 ng/mL

----------
# Measurement Notes: 1st phase clinical test: pharmacokinetics of petasin in serum after single oral administration of tablets containing butterbur extract (open crossover; enzyme immunoassay)
# Format: in vivo, human (clinically healthy men)
# Conditions: male, human, serum, oral, 4 tablets, after administering 4 tablets; 12 h p.a.; read-out: Petasin serum concentration Mean
Measured Attribute: concentration at 12 h (ng/mL)
Use ng/mL as the unit, but write only the number.

## Input Need concentration at 12 h, item C=C(C)C1CC2(C)C(=CC1=O)CCC(OC(=O)/C(C)=C\C)C2C (stereo not shown)
## Output 2.7

----------
# Measurement Notes: 1st phase clinical test: pharmacokinetics of petasin in serum after single oral administration of tablets containing butterbur extract (open crossover; enzyme immunoassay)
# Assay type: in vivo, human (clinically healthy men)
# Conditions: male, human, serum, oral, 2 tablets, after administering 2 tablets; 2.167 h p.a.; read-out: Petasin serum concentration Mean
Measured Attribute: concentration at 2.167 h (ng/mL)
Dear colleague, please return just the value in ng/mL, with no unit written.

## Input Would you mind telling me what concentration at 2.167 h value was observed for C=C(C)C1CC2(C)C(=CC1=O)CCC(OC(=O)/C(C)=C\C)C2C (stereo not shown) ?
## Output 16.3

----------
# Measurement Notes: 1st phase clinical test: pharmacokinetics of petasin in serum after single oral administration of tablets containing butterbur extract (open crossover; enzyme immunoassay)
# Type: in vivo, human (clinically healthy men)
# Conditions: male, human, serum, oral, 4 tablets, after administering 4 tablets; 1.833 h p.a.; read-out: Petasin serum concentration Median
# Method: Petasin ovalbumin is adsorptively bound to polystyrene microtitration plates in a concentration of […] in 0.1 M carbonate buffer, pH=9.5, (100 μl/well) for 16 hours at 4° C. and thereupon sucked off. After washing it two times with 300 μl/well washing buffer (PBS, 0.1% Tween 20) it is blocked for 2 hours at room temperature with 150 μl/well blocking solution (0.6% gelatine, 0.02% […] in PBS) and subsequently washed three times with washing buffer. […]
Measured Attribute: concentration at 1.833 h (ng/mL)
I only need the number, in ng/mL, no unit after it.

## Input What measured concentration at 1.833 h goes with C=C(C)C1CC2(C)C(=CC1=O)CCC(OC(=O)/C(C)=C\C)C2C (stereo not shown) [petasin] ?
## Output 26.8

----------
# Measurement Notes: 1st phase clinical test: pharmacokinetics of petasin in serum after single oral administration of tablets containing butterbur extract (open crossover; enzyme immunoassay)
# Assay type: in vivo, human (clinically healthy men)
# Conditions: male, human, serum, oral, 2 tablets, after administering 2 tablets; 4 h p.a.; read-out: Petasin serum concentration Median
Measured Attribute: concentration at 4 h (ng/mL)
Use ng/mL as the unit, but write only the number.

## Input Field request: concentration at 4 h | item: C=C(C)C1CC2(C)C(=CC1=O)CCC(OC(=O)/C(C)=C\C)C2C (stereo not shown)
## Output 5.2

----------
# Measurement Notes: 1st phase clinical test: pharmacokinetics of petasin in serum after single oral administration of tablets containing butterbur extract (open crossover; enzyme immunoassay)
# Assay type: in vivo, human (clinically healthy men)
# Conditions: male, human, serum, oral, 2 tablets, after administering 2 tablets; 0.75 h p.a.; read-out: Petasin serum concentration Median
# Experimental: Petasin ovalbumin is adsorptively bound to polystyrene microtitration plates in a concentration of […] in 0.1 M carbonate buffer, pH=9.5, (100 μl/well) for 16 hours at 4° C. and thereupon sucked off. After washing it two times with 300 μl/well washing buffer (PBS, 0.1% Tween 20) it is blocked for 2 hours at room temperature with 150 μl/well blocking solution (0.6% gelatine, 0.02% […] in PBS) and subsequently washed three times with washing buffer. […]
Measured Attribute: concentration at 0.75 h (ng/mL)
Give a bare numeral; the unit ng/mL is implied.

## Input What does the record list as concentration at 0.75 h for C=C(C)C1CC2(C)C(=CC1=O)CCC(OC(=O)/C(C)=C\C)C2C (stereo not shown) [petasin] ?
## Output 11
